Biological target: Bcl-2 (Homo sapiens, UniProt P10415, DEL53-91)
Construct: myc- Bcl-2 FP; made in house
Sequence (P10415 with tags, fused parts or gaps DEL53-91): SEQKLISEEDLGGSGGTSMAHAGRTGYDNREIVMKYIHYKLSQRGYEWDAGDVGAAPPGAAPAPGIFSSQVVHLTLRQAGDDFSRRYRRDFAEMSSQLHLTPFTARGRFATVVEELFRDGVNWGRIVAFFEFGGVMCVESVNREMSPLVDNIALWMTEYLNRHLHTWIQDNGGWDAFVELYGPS
Assay: Fluorescence polarization direct binding
Settings: FP direct binding; 10 nM FAM-labeled peptide, receptor titrated; 25°C, pH 7.8; fit of all replicate titrations; X+number in a cell = highest concentration (nM) measured with no binding detected, given here as >; SPNS1 fit to raw fluorescence; read-out: Best-fit KD, Bcl-2
No end group written: not given here.
Each item that follows carries a reported Kd.

# count of solved cases: 2
[
  {
    "Substance": "QRKHEGFERDLAALGDKVNSLGETAE-NH2 [SPTAN1]",
    "Kd": "> 3050 nM"
  },
  {
    "Substance": "THEEVVHLLRNAGDEVTITVEYL-NH2 [SNTG2]",
    "Kd": "> 3050 nM"
  }
]

So, KREKLVEILRNIGDERTMVFVET-NH2 [DDX4] ? Its Kd was > 3050 nM

====

Target: Bfl-1 (Homo sapiens)
Construct: myc- Bfl-1 SPOT array & FP; made in house
Sequence (Q16548 with tags, fused parts or gaps): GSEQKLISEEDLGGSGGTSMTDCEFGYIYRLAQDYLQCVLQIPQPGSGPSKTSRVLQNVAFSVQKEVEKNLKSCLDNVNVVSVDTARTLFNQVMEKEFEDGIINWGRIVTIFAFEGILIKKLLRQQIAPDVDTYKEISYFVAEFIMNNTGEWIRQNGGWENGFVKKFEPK
Test: Fluorescence polarization direct binding
Conditions: FP direct binding; 10 nM FAM-labeled peptide, receptor titrated; 25°C, pH 7.8; fit of all replicate titrations; X+number in a cell = highest concentration (nM) measured with no binding detected, given here as >; SPNS1 fit to raw fluorescence; read-out: Best-fit KD, Bfl-1
No end group written: not given here.
Each item that follows carries a reported Kd.

[
  {
    "Substance": "RSMVFARHLREVGDEFRSRHLNS-NH2 [POFUT2]",
    "Test system": "Bfl-1 (Homo sapiens)",
    "Measurement name": "Kd",
    "Observed": "> 2280 nM"
  }
]

// substance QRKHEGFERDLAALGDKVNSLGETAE-NH2 [SPTAN1] , assay Bfl-1 (Homo sapiens), Kd value: > 3370 nM

// substance KREKLVEILRNIGDERTMVFVET-NH2 [DDX4] , assay Bfl-1 (Homo sapiens), Kd value: > 3370 nM

====

Target: Bcl-2 (Homo sapiens, UniProt P10415, DEL53-91)
Construct: myc- Bcl-2 FP; made in house
Assay: Fluorescence polarization direct binding
Details: benchmark classification of peptides newly characterized in this study; read-out: Binder class, Bcl-2
pKd: −log10 of the molar value. No end group written: not given here.
Measurement name: pKd

# count of solved cases: 5
[
  {
    "Substance": "KREKLVEILRNIGDERTMVFVET-NH2 [DDX4]",
    "Test system": "Bcl-2 (Homo sapiens, UniProt P10415, DEL53-91)",
    "pKd": "> 6.00"
  },
  {
    "Substance": "GSGAWGLLLRRVGDDVLVHLLAR-NH2 [TERT]",
    "Test system": "Bcl-2 (Homo sapiens, UniProt P10415, DEL53-91)",
    "pKd": "> 6.00"
  },
  {
    "Substance": "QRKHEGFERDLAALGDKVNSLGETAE-NH2 [SPTAN1]",
    "Test system": "Bcl-2 (Homo sapiens, UniProt P10415, DEL53-91)",
    "pKd": "5.00 to 6.00"
  },
  {
    "Substance": "EVLAGPLAQRLSHIAEDVGRLVKKSR-NH2 [ARHGAP4]",
    "Test system": "Bcl-2 (Homo sapiens, UniProt P10415, DEL53-91)",
    "pKd": "5.00 to 6.00"
  },
  {
    "Substance": "KKMTLSEIYRWIADNFPYYKNAG-NH2 [FOXJ2]",
    "Test system": "Bcl-2 (Homo sapiens, UniProt P10415, DEL53-91)",
    "pKd": "> 6.00"
  }
]

So, IIHKLAMQLRHIGDNIDHRMVRE-NH2 [PXT1] ? Its pKd was > 6.00

So, APYYLSRNLKQQADIIFMPYNYL-NH2 [RTEL1] ? Its pKd was 5.00 to 6.00

So, PILENPEILRKTADDFLNRIALT-NH2 [CCH] ? Its pKd was 5.00 to 6.00

So, LRLFLAQRLRWLADSAPASRATA-NH2 [NBEAL2] ? Its pKd was > 6.00

So, LSDGLPVHLANIADELTQKKKMF-NH2 [AGBL2] ? Its pKd was 5.00 to 6.00

So, ATRRLSGFLRTLADRLEGTKELL-NH2 [MINA] ? Its pKd was > 6.00
